Entries and their Binding of serum SARS-green to linear peptides of Orf14 of SARS-CoV TOR2 values follow.
- Test system: serum SARS-green
- Type: binding, human
measureName: Binding of serum SARS-green to linear peptides of Orf14 of SARS-CoV TOR2

[[record]]
residues = "PHHVVAVIQEIQLLA"
tgt = "serum SARS-green"
measvalue = 0.2

[[record]]
residues = "EAAVKPLLAPHHVVA"
tgt = "serum SARS-green"
measvalue = 0.6

[[record]]
residues = "ASTQREAEAAVKPLL"
tgt = "serum SARS-green"
measvalue = 0.4


====

# Binding of serum 1a to linear peptides of Orf14 of SARS-CoV TOR2 annotations
- Test system: serum 1a (individual 1, early serum)
- Type: binding, human
measureName: Binding of serum 1a to linear peptides of Orf14 of SARS-CoV TOR2

[[record]]
residues = "QLLAAVGEILLLEWL"
measvalue = 0.5

[[record]]
residues = "EILLLEWLAEVVKLP"
measvalue = 0.5

[[record]]
residues = "EAEAAVKPLLAPHHV"
measvalue = 0.5

[[record]]
residues = "VGEILLLEWLAEVVK"
measvalue = 0.5

[[record]]
residues = "REAEAAVKPLLAPHH"
measvalue = 0.5

[[record]]
residues = "AAVGEILLLEWLAEV"
measvalue = 0.6

[[record]]
residues = "EQHCQKASTQREAEA"
measvalue = 0.4

[[record]]
residues = "PPCYNFLKEQHCQKA"
measvalue = 0.3

[[record]]
residues = "YNFLKEQHCQKASTQ"
measvalue = 0.5

[[record]]
residues = "KPLLAPHHVVAVIQE"
measvalue = 0.5

[[record]]
residues = "IQLLAAVGEILLLEW"
measvalue = 0.5

[[record]]
residues = "EAAVKPLLAPHHVVA"
measvalue = 0.6

[[record]]
residues = "LAPHHVVAVIQEIQL"
measvalue = 0.5

[[record]]
residues = "LLAPHHVVAVIQEIQ"
measvalue = 0.5

